Test: Displacement of [3H]ouabain binding from Na+,K+ -ATPase receptor isolated from dog kidney
Parameters: species or system Canis lupus familiaris
Below is a list of entries, each paired with its recorded -Log IC50 value.
Test Readout: -Log IC50

>  <Molecule>
C[C@]12CC[C@H](S)C[C@H]1CC[C@@H]1[C@@H]2CC[C@]2(C)[C@@H](C3=CC(=O)OC3)C[C@H]3O[C@]132

>  <Result Number>
5.6

$$$$
>  <Molecule>
C[C@]12CC[C@H](O)C[C@H]1CC[C@@H]1[C@@H]2CC[C@]2(C)[C@@H]([C@H]3COC(=O)C3)CC[C@]12O

>  <Result Number>
5.8

$$$$
>  <Molecule>
C[C@]12CC[C@H](O)C[C@H]1CC[C@@H]1[C@@H]2CC[C@]2(C)[C@@H](C3=CC(=O)OC3)C[C@H]3O[C@]132

>  <Result Number>
6.6

$$$$
>  <Molecule>
CN(C)CCCS[C@H]1CC[C@@]2(C)[C@H](CC[C@@H]3[C@@H]2CC[C@]2(C)[C@@H](C4=CC(=O)OC4)CC[C@]32O)C1

>  <Result Number>
7

$$$$
>  <Molecule>
C[C@]12CC[C@H](SCCCN)C[C@H]1CC[C@@H]1[C@@H]2CC[C@]2(C)[C@@H](C3=CC(=O)OC3)C[C@H]3O[C@]132

>  <Result Number>
6.6

$$$$
>  <Molecule>
C[C@]12CC[C@H](SCCCN)C[C@H]1CC[C@@H]1[C@@H]2CC[C@]2(C)[C@@H]([C@@H]3COC(=O)C3)CC[C@]12O

>  <Result Number>
6.5

$$$$
>  <Molecule>
C[C@]12CC[C@H](SCCCN)C[C@H]1CC[C@@H]1[C@@H]2CC[C@]2(C)[C@@H]([C@H]3COC(=O)C3)CC[C@]12O

>  <Result Number>
6.5

$$$$
>  <Molecule>
C[C@]12CC[C@H](O)C[C@H]1CC[C@@H]1[C@@H]2CC[C@]2(C)[C@@H](C3=CC(=O)OC3)CC[C@]12O [DIGITOXIGENIN]

>  <Result Number>
7.2

$$$$
>  <Molecule>
C[C@]12CC[C@H](SCC[N+](C)(C)C)C[C@H]1CC[C@@H]1[C@@H]2CC[C@]2(C)[C@@H](C3=CC(=O)OC3)CC[C@]12O

>  <Result Number>
7

$$$$
>  <Molecule>
C[C@]12CC[C@H](SCCCN3CCNCC3)C[C@H]1CC[C@@H]1[C@@H]2CC[C@]2(C)[C@@H](C3=CC(=O)OC3)CC[C@]12O

>  <Result Number>
6.5

$$$$
>  <Molecule>
C[C@]12CC[C@H](O)C[C@H]1CC[C@@H]1[C@@H]2CC[C@]2(C)[C@@H](C3=CC(=O)OC3)CC[C@@H]12

>  <Result Number>
5.2

$$$$
>  <Molecule>
C[C@]12CC[C@H](SCCN)C[C@H]1CC[C@@H]1[C@@H]2CC[C@]2(C)[C@@H](C3=CC(=O)OC3)CC[C@]12O

>  <Result Number>
7.5

$$$$
>  <Molecule>
C[C@]12CC[C@H](SCCCN)C[C@H]1CC[C@@H]1[C@@H]2CC[C@]2(C)[C@@H](C3=CC(=O)OC3)CC[C@@H]12

>  <Result Number>
5.8

$$$$
>  <Molecule>
C[C@]12CCC3C(CC[C@@H]4C[C@@H](SCCCN)CC[C@]34C)C1=CC[C@@H]2C1=CC(=O)OC1 (some centres not stated)

>  <Result Number>
5.8

$$$$
>  <Molecule>
C[C@]12CC[C@H](S)C[C@H]1CC[C@@H]1[C@@H]2CC[C@]2(C)[C@@H]([C@@H]3COC(=O)C3)CC[C@]12O

>  <Result Number>
5

$$$$
>  <Molecule>
C[C@]12CC[C@H](S)C[C@H]1CC[C@@H]1[C@@H]2CC[C@]2(C)[C@@H](C3=CC(=O)OC3)CC[C@]12O

>  <Result Number>
6

$$$$
>  <Molecule>
C[C@]12CC[C@H](S)C[C@H]1CC[C@@H]1[C@@H]2CC[C@]2(C)[C@@H]([C@H]3COC(=O)C3)CC[C@]12O

>  <Result Number>
5.5

$$$$
>  <Molecule>
C[C@]12CC[C@H](O)C[C@H]1CC[C@@H]1[C@@H]2CC[C@]2(C)[C@@H]([C@@H]3COC(=O)C3)CC[C@]12O

>  <Result Number>
5.6

$$$$
>  <Molecule>
C[C@]12CCC3C(CC[C@@H]4C[C@@H](O)CC[C@]34C)C1=CC[C@@H]2C1=CC(=O)OC1 (some centres not stated)

>  <Result Number>
5.5

$$$$
>  <Molecule>
C[C@]12CC[C@H](SCCCN)C[C@H]1CC[C@@H]1[C@@H]2CC[C@]2(C)[C@@H](C3=CC(=O)OC3)CC[C@]12O

>  <Result Number>
7.1

$$$$
>  <Molecule>
C[C@]12CC[C@H](SCCN3CCCC3)C[C@H]1CC[C@@H]1[C@@H]2CC[C@]2(C)[C@@H](C3=CC(=O)OC3)CC[C@]12O

>  <Result Number>
6.7

$$$$
>  <Molecule>
C[C@]12CC[C@H](SCCCN3CCCC3)C[C@H]1CC[C@@H]1[C@@H]2CC[C@]2(C)[C@@H](C3=CC(=O)OC3)CC[C@]12O

>  <Result Number>
6.8

$$$$
